test system: LOC_OS01G67340-cb003; experiment: thermal shift delta Tm vs DMSO control; higher = stronger stabilization (binding); details: 12.5 µM; protein concentration 2 µM;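 also: purified Escherichia coli-expressed rice kinase domain construct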
result_type: thermal shift delta Tm
Field: value (include unit after the number)

Solved entries (count: 6):
compound	thermal shift delta Tm
C=CCc1ccc(O)c(-c2ccc(O)c(CC=C)c2)c1 [Honokiol]	1.09 °C
O=c1cc(N2CCOCC2)oc2c(-c3ccccc3)cccc12	-0.28 °C
COCCNCc1ccc(-c2cc3nccc(Oc4ccc(NC(=O)C5(C(=O)Nc6ccc(F)cc6)CC5)cc4F)c3s2)nc1 [Sitravatinib (MGCD516)]	7.72 °C
C[C@H]1CNC(=O)c2cnn3ccc(nc23)N[C@H](C)c2cc(F)ccc2O1	1.17 °C
C[C@H](Nc1ncnc2[nH]cnc12)c1cc2ccc(F)cc2nc1-c1ccccn1	0.95 °C
CC(C)(C)c1cnc(CSc2cnc(NC(=O)C3CCNCC3)s2)o1	-0.45 °C

[in] Returns the measured thermal shift delta Tm for the input compound. Input: COc1cc2ncnc(Sc3nnc(C)s3)c2cc1OC
[out] 0.41 °C

[in] Lookup Nc1ncnc2c1c(-c1cnc3[nH]ccc3c1)nn2C1CCCC1
[out] 1.58 °C

[in] COc1cc(Nc2ncc(F)c(Nc3ccc4c(n3)N(COP(=O)(O)O)C(=O)C(C)(C)O4)n2)cc(OC)c1OC [R788 (Fostamatinib) Disodium] , same question.
[out] 0.57 °C

---

As shown below, each of these molecules has a reported thermal shift delta Tm value.
test system: LOC_OS05G28520-cb001; experiment: thermal shift delta Tm vs DMSO control; higher = stronger stabilization (binding); conditions: 12.5 µM; protein concentration 2 µM
Number in °C, nothing else.

molecule	system_tested	reading
Cn1cnc(N)c2ncnc1-2 [3-Methyladenine (3-MA)]	LOC_OS05G28520-cb001	0.15
CC1(C)CNc2cc(NC(=O)c3cccnc3NCc3ccncc3)ccc21 [Motesanib Diphosphate (AMG-706)]	LOC_OS05G28520-cb001	0.68
Cc1ccc(NC(=O)c2cccc(C(C)(C)C#N)c2)cc1Nc1ccc2ncn(C)c(=O)c2c1	LOC_OS05G28520-cb001	0.69
N#C/C(=C(/N)Sc1ccc(N)cc1)c1ccccc1C(F)(F)F	LOC_OS05G28520-cb001	0.13

Attention now turns to another entry.
[in] Query for LOC_OS05G28520-cb001: what thermal shift delta Tm does the record show for CCOc1cc(N2CCC(O)CC2)ccc1Nc1ncc2c(n1)N(C)c1ccccc1C(=O)N2C ?
[out] 0.32

---

system: LOC_OS04G57630-cb004; assay: thermal shift delta Tm vs DMSO control; higher = stronger stabilization (binding); conditions: 12.5 µM; protein concentration 2 µM
The entries below are paired with their reported thermal shift delta Tm.

Below: 4 compounds and their reported thermal shift delta Tm.
mol_smiles	reading
C#Cc1cccc(Nc2ncnc3cc(OCCOC)c(OCCO)cc23)c1	0.14 °C
CCn1c2ccccc2c2cc(Nc3ccnc(NCCCN4CCOCC4)n3)ccc21	0.23 °C
CNS(=O)(=O)C[C@H]1CC[C@H](N(C)c2[nH]cnc3nccc2-3)CC1	0.5 °C
Cn1cc(C2=C(c3ccc(Cl)cc3Cl)C(=O)NC2=O)c2ccccc21	0.28 °C

// next item, thermal shift delta Tm requested
[in] Look at this compound and give its reported thermal shift delta Tm. C=C(C)[C@@H]1CC[C@]2(C)CC[C@]3(C)[C@H](CC[C@@H]4[C@@]5(C)CC[C@H](O)C(C)(C)[C@@H]5CC[C@]43C)[C@@H]12
[out] 0.77 °C

---

system: LOC_OS02G08530-cb003; assay: thermal shift delta Tm vs DMSO control; higher = stronger stabilization (binding); conditions: 12.5 µM; protein concentration 2 µM
Structures can show the parent of a compound that is named as a salt.
Binary classification by thermal shift delta Tm, with 1 °C as an inclusive lower bound for criterion met; all other cases are criterion not met.

compound	assigned_label
Cc1csc(-c2nnc(Nc3ccc(Oc4ncccc4-c4ccnc(N)n4)cc3)c3ccccc23)c1	criterion met
O=C(NOCC1CC1)c1ccc(F)c(F)c1Nc1ccc(I)cc1Cl	criterion met
Oc1ccc(-c2nc(-c3ccc(F)cc3)c(-c3ccncc3)[nH]2)cc1	criterion met
COc1cc(-c2cc(-c3ccc(N4CCNCC4)cc3)cnc2C)cc(OC)c1OC	criterion not met
CC(C)NC[C@@H](C(=O)N1CCN(c2ncnc3c2[C@H](C)C[C@H]3O)CC1)c1ccc(Cl)cc1	criterion not met
CCOc1cc(C(=O)N2CCC(N3CCN(C)CC3)CC2)ccc1Nc1ncc2c(n1)N(C1CCCC1)c1ccccc1C(=O)N2C	criterion not met
Nc1cc(C(F)(F)F)c(-c2cc(N3CCOCC3)nc(N3CCOCC3)n2)cn1	criterion not met

Would you kindly look at the next entry?
[in] Could you tell me if the measured thermal shift delta Tm of Cc1ccc(NC(=O)c2ccc(CN3CCN(C)CC3)cc2)cc1Nc1nccc(-c2cccnc2)n1 [Imatinib Mesylate (STI571)] reaches 1 °C or more?
[out] criterion met

---

system: LOC_OS04G57630-cb004; test: thermal shift delta Tm vs DMSO control; higher = stronger stabilization (binding); settings: 12.5 µM; protein concentration 2 µM
Structures can show the parent of a compound that is named as a salt.
Threshold check on thermal shift delta Tm: at or above 0.3 °C gives YES, strictly below gives NO.

compound	assigned_label
Cc1ccc(NC(=O)c2cccc(N(C)C)c2)cc1NC(=O)c1ccc(O)cc1	YES
Nc1ncc(-c2ccnc(Nc3ccncc3)n2)c(CC2CC2)n1	YES
COc1cc(Nc2c(C#N)cnc3cc(OCCCN4CCN(C)CC4)c(OC)cc23)c(Cl)cc1Cl [Bosutinib (SKI-606)]	NO
NC[C@@](O)(c1ccc(Cl)cc1)c1ccc(-c2cn[nH]c2)cc1	NO
C=CC(=O)Nc1ccc2ncnc(Nc3cccc(Br)c3)c2c1	YES
O=C(Nc1c[nH]nc1-c1nc2ccc(CN3CCOCC3)cc2[nH]1)NC1CC1	YES

[in] Can Oc1cccc(-c2nc(N3CCOCC3)c3oc4ncccc4c3n2)c1 be said to have thermal shift delta Tm at or above 0.3 °C?
[out] NO

[in] Subsequent entry: CCn1c(N)c(C(=O)NC)c(=O)c2ccc(C#CC(C)(O)COC)nc21 (configuration not stated)
[out] YES

[in] Same read-out for CC#CC(=O)N1CC[C@@H](n2c(=O)n(-c3ccc(Oc4ccccc4)cc3)c3c(N)ncnc32)C1 [ONO-4059 (GS-4059) hydrochloride] ?
[out] YES

[in] And the next one, CC(C)=CC[C@@H](O)C1=CC(=O)c2c(O)ccc(O)c2C1=O [Shikonin] ?
[out] NO

[in] Queued: COc1cc2ncnc(Nc3ccc(O)c(Br)c3)c2cc1OC
[out] NO

[in] Input COc1cc(OC)cc(N(CCNC(C)C)c2ccc3ncc(-c4cnn(C)c4)nc3c2)c1
[out] NO

[in] Try the compound C[C@H](NC(=O)/C(C#N)=C/c1cccc(Br)n1)c1ccccc1
[out] NO

[in] Would you mind doing CCc1nc(-c2cccc(C)c2)c(-c2ccnc(NC(=O)c3ccccc3)c2)s1 as well?
[out] NO

[in] Also CCn1nc(C2CCN(C(=O)CCO)CC2)nc1-c1cnc(N)c(-c2nnc(C(C)(C)C)o2)n1 ?
[out] YES

[in] How about C=CC(=O)N1CCC[C@@H](n2nc(-c3ccc(Oc4ccccc4)cc3)c3c(N)ncnc32)C1 ?
[out] YES

[in] One more compound: CC(C)(C)Cn1c(N)nc2ccc(-c3[nH]c(C(C)(C)C)nc3-c3ccc(F)cc3)nc21
[out] NO

[in] Cool, now CCCCNc1ncc2c(-c3ccc(CN4CCN(C)CC4)cc3)cn([C@H]3CC[C@H](O)CC3)c2n1
[out] YES

[in] COc1ccc(CNC(=O)Nc2ncc([N+](=O)[O-])s2)cc1 , same question.
[out] NO

[in] Next: CC(C)CC(=O)Nc1n[nH]c2c1CN(C(=O)C1CCN(C)CC1)C2(C)C
[out] YES

[in] Also, Cc1ncc(CCCN(C)C)cc1Nc1ncc2c(n1)-c1ccc(C(F)(F)F)cc1NC(=S)C2 please.
[out] NO

[in] Okay, and Cc1[nH]c(/C=C2\C(=O)Nc3ccc(S(=O)(=O)Cc4c(Cl)cccc4Cl)cc32)c(C)c1C(=O)N1CCC[C@@H]1CN1CCCC1 ?
[out] YES

[in] Next compound up: Cn1cnc(N)c2ncnc1-2 [3-Methyladenine (3-MA)]
[out] NO

[in] Next entry: Cc1ccc(F)c(NC(=O)Nc2ccc(-c3cccc4[nH]nc(N)c34)cc2)c1 [Linifanib (ABT-869)]
[out] YES

[in] One more compound: Cc1ccc(-n2nc(C(C)(C)C)cc2NC(=O)Nc2ccc(OCCN3CCOCC3)c3ccccc23)cc1 [Doramapimod (BIRB 796)]
[out] YES

[in] Let us now turn to COc1cc2/c(=N/c3ccc(Br)cc3F)nc[nH]c2cc1OCC1CCN(C)CC1 [Vandetanib (ZD6474)]
[out] YES

[in] Please give the result for N=C(N)NC(=N)NCCc1ccccc1 [Phenformin HCl] too.
[out] NO

[in] Item: Oc1ccc(Nc2nc(-c3ccc(Cl)cc3)cs2)cc1
[out] NO
